Reported pEC50 values for the following compounds.
# System: HTT mRNA
# Test: Splicing RT-qPCR assay, HTT canonical (CJ) and alternative (AJ) junction mRNA
# Type: cell-based
# Experimental conditions: Homo sapiens; Table 7; AC50 = 50% response in AJ mRNA increase; RT-qPCR, A673 or K562 cells, 24 hours treatment
pEC50: −log10 of the molar value. Where a name gives a salt, the structure may show the parent alone.
Readout name: pEC50

>>> result("Cc1cc(-c2cc3cn([C@@H]4CCNC[C@@H]4F)nc3s2)cc2cn(C)nc12 (single isomer, unassigned)")
"6.00 to 7.00"
>>> result("Cn1cc2cc(-c3cc4cn(C5CCNCC5)nc4s3)c(F)cc2n1")
"> 7.00"
>>> result("Cc1cn2nc(-n3cc4cc(C5CCNCC5)sc4n3)nc2c(C)n1")
"5.00 to 6.00"
>>> result("CC1CN(c2cc3sc(-c4cc(F)c5nn(C)cc5c4)nc3s2)CCN1C (stereo not drawn)")
"5.00 to 6.00"
>>> result("Cn1cc2c(O)c(-c3nc4sc(C5CCNCC5)cc4s3)ccc2n1")
"5.00 to 6.00"
>>> result("Cc1cn2nc(-c3cc4cn([C@H]5CCNC[C@@H]5F)nc4s3)cc(C)c2n1 (mixture of isomers)")
"5.00 to 6.00"
>>> result("COc1c(-c2nc3cn(C4CCNCC4)nc3s2)cc2cn(C)nc2c1C")
"5.00 to 6.00"
>>> result("Cc1cn2cc(-n3cc4cc(C5CCNCC5)sc4n3)cc(F)c2n1")
"6.00 to 7.00"
>>> result("Cn1cc2cc(-c3cc4cn([C@@H]5CCNC[C@H]5F)nc4s3)cc(F)c2n1")
"> 7.00"
>>> result("Cc1cn2cc(-c3nc4sc(C5CCNCC5)cc4s3)cc(Cl)c2n1")
"> 7.00"
>>> result("Cn1cc2cc(-c3cc4nn(C5CCNCC5)cc4s3)cc(F)c2n1")
"6.00 to 7.00"
>>> result("Cn1cc2cc(-c3cc4cn([C@@H]5CCNC5)nc4s3)cc(F)c2n1 [Compound 160, hydrochloride]")
"5.00 to 6.00"

* * *

# System: HTT mRNA
# Test: Splicing RT-qPCR assay, HTT canonical (CJ) and alternative (AJ) junction mRNA
# Format: cell-based
# Experimental conditions: Homo sapiens; Table 7; AC50 = 50% response in AJ mRNA increase; RT-qPCR, A673 or K562 cells, 24 hours treatment
pEC50: −log10 of the molar value.
Readout name: pEC50

>>> result("COc1c(-c2nc3sc(C4CCNCC4)cc3s2)cc(F)c2nn(C)cc12 [Compound 237]")
"< 5.00"
>>> result("Cc1cc(-c2cc3cn([C@H]4CCNC[C@H]4F)nc3s2)cc2cn(C)nc12 (single isomer, unassigned) [Compound 245]")
"6.00 to 7.00"
>>> result("Cn1cc2cc(-c3cc4cn(C5=CCOCC5)nc4s3)cc(F)c2n1 [Compound 177]")
"< 5.00"
>>> result("Cc1cn2nc(-c3nc4sc(C5CNC5)cc4s3)cc(C)c2n1 [Compound 235]")
"5.00 to 6.00"
>>> result("Cc1nc2c(F)cc(-n3cc4sc(C5CCNCC5)cc4n3)cc2o1 [Compound 167]")
"6.00 to 7.00"
>>> result("Cc1cn2nc(-c3nc4sc(C5CCOCC5)cc4s3)cc(C)c2n1 [Compound 196]")
"5.00 to 6.00"
>>> result("Cc1cn2cc(-c3nc4cn(C5CCNCC5)nc4s3)nc(C)c2n1 [Compound 1105]")
"< 5.00"
>>> result("Cn1cc2cc(-c3nc4sc(N5CCC(NC(C)(C)C)C5)cc4s3)cc(F)c2n1 (centres unmarked) [Compound 143]")
"5.00 to 6.00"
>>> result("Cn1cc2cc(-c3nc4sc(N5CCC6(CCN6)C5)cc4s3)cc(F)c2n1 (centres unmarked) [Compound 233]")
"5.00 to 6.00"
>>> result("C[C@@H]1C[C@H](c2cc3sc(-c4cc(F)c5nn(C)cc5c4)nc3s2)CCN1 (single isomer, unassigned) [Compound 192]")
"> 7.00"
>>> result("Cn1cc2cc(-c3cc4cn([C@@H]5CCNC[C@H]5O)nc4s3)cc(F)c2n1 [Compound 273]")
"5.00 to 6.00"

* * *

# Test system: SMN2 mRNA
# Test: Splicing RT-qPCR gene panel, SMN2 canonical junction (CJ) mRNA
# Format: cell-based
# Experimental conditions: Homo sapiens; Table 8; larger gene panel, decrease in CJ mRNA levels
# Procedure: Compounds described herein were used to modulate RNA transcript abundance in cells. The expression of a target mRNA was measured by detecting the formation of an exon-exon junction in the canonical transcript (CJ). A compound mediated exon-inclusion event was detected by observing an increase in formation of a new junction with an alternative exon (AJ). Real-time qPCR assays were used to detect these splicing switches and interrogate the potency of various compounds towards different target genes. […]
pIC50: −log10 of the molar value.
Readout name: pIC50

>>> result("Cc1nc2c(F)cc(-n3cc4cc(C5CCNCC5)sc4n3)cc2o1")
"> 7.00"
>>> result("c1n[nH]cc1-n1cc2sc(C3CCNCC3)cc2n1")
"< 5.00"
>>> result("Cc1cn2nc(-n3cc4sc(C5CCNCC5)cc4n3)cc(C)c2n1")
"> 7.00"
>>> result("CN(c1cc2nn(-c3ccc(-c4cn[nH]c4)cc3O)cc2s1)[C@@H]1C[C@H]2CC[C@@H](C1)N2")
"5.00 to 6.00"
>>> result("Cn1cc2cc(-c3cc4cn(C5=CCOCC5)nc4s3)cc(F)c2n1")
"< 5.00"
>>> result("Cn1cc2cc(-c3cc4sc(C5CCNCC5)nc4s3)cc(F)c2n1")
"> 7.00"

* * *

# System: Target C mRNA
# Test: Splicing RT-qPCR gene panel, Target C canonical junction (CJ) mRNA
# Format: cell-based
# Experimental conditions: Homo sapiens; Table 8; larger gene panel, decrease in CJ mRNA levels
pIC50: −log10 of the molar value.
Readout name: pIC50

>>> result("Cc1cn2cc(-c3cc4cn(C5CCNCC5)nc4s3)cc(Cl)c2n1 [Compound 226]")
"6.00 to 7.00"
>>> result("CN1CCC2(CC1)CCN2c1cc2sc(-c3cc(F)c4nn(C)cc4c3)nc2s1 [Compound 204]")
"5.00 to 6.00"
>>> result("Cc1cn2cc(-n3cc4sc(C5CCNCC5)cc4n3)cc(C)c2n1 [Compound 173]")
"< 5.00"
>>> result("Cc1cn2cc(-n3cc4cc(C5CCNCC5)sc4n3)cc(C)c2n1 [Compound 155]")
"5.00 to 6.00"
>>> result("Cn1cc2cc(-c3nc4sc(C5(O)CCNCC5)cc4s3)cc(F)c2n1 [Compound 236]")
"5.00 to 6.00"
>>> result("C[C@@H]1C[C@@H](c2cc3sc(-c4cc(F)c5nn(C)cc5c4)nc3s2)CCN1 (stereo in doubt) [Compound 263]")
"6.00 to 7.00"
>>> result("Cc1cn2nc(-n3cc4sc(C5CCNCC5)cc4n3)cc2c(C)n1 [Compound 171]")
"5.00 to 6.00"
>>> result("Cc1cn2nc(-c3nc4sc(C5=CCOCC5)cc4s3)cc(C)c2n1 [Compound 195]")
"6.00 to 7.00"
>>> result("Cc1cn2cc(-c3nc4sc(C5CCNCC5)cc4s3)ccc2n1 [Compound 271]")
"6.00 to 7.00"
>>> result("CN(C)C1CCN(c2cc3sc(-c4cc(F)c5nn(C)cc5c4)nc3s2)CC1 [Compound 154]")
"6.00 to 7.00"
>>> result("CN1CCC(c2cc3sc(-c4cc(F)c5nn(C)cc5c4)nc3s2)CC1 [Compound 151]")
"6.00 to 7.00"

* * *

# System: Target C
# Test: HiBiT protein abundance assay, Target C (K562 HiBiT knock-in cells)
# Format: cell-based, human
# Experimental conditions: 24 hours treatment
Readout name: IC50

>>> result("CN(c1cc2nn(-c3ccc(-c4cn[nH]c4)cc3O)cc2s1)[C@@H]1C[C@H]2CC[C@@H](C1)N2 [Compound 148]")
"1000 to 10000 nM"
>>> result("Cn1cc2cc(-n3cc4cc(C5CCNCC5)sc4n3)c(O)cc2n1 [Compound 220]")
"1000 to 10000 nM"
>>> result("Cn1cc2cc(-c3cc4cn(C5=CCOCC5)nc4s3)cc(F)c2n1 [Compound 177]")
"> 10000 nM"
>>> result("Cc1cn2nc(-n3cc4sc(N5CC6(CN(C)C6)C5)cc4n3)cc(C)c2n1 [Compound 188]")
"1000 to 10000 nM"
>>> result("Cn1cc2cc(-c3cc4cn(C5CCNCC5)nc4s3)c(O)c(F)c2n1 [Compound 215]")
"1000 to 10000 nM"
>>> result("Cn1cc2cc(-c3cc4nn(C5CCNCC5)cc4s3)cc(F)c2n1 [Compound 121]")
"< 100 nM"
>>> result("Cc1cn2cc(-c3cc4cn(C5CCNCC5)nc4s3)ncc2n1 [Compound 223]")
"1000 to 10000 nM"
>>> result("Cc1cn2cc(-n3cc4cc(C5CCNCC5)sc4n3)ncc2n1 [Compound 158]")
"100 to 1000 nM"
>>> result("CN1CCC(n2cc3cc(-c4cc(F)c5nn(C)cc5c4)sc3n2)CC1 [Compound 150]")
"100 to 1000 nM"
>>> result("Cc1cn2cc(-n3cc4sc(C5CCNCC5)cc4n3)cc(F)c2n1 [Compound 166]")
"100 to 1000 nM"
>>> result("Cc1cn2nc(-c3cc4cn(C5CCNCC5)nc4s3)cc2c(C)n1 [Compound 222]")
"1000 to 10000 nM"
>>> result("Cc1cn2cc(-n3cc4cc(C5CCNCC5)sc4n3)cc(C)c2n1 [Compound 155]")
"100 to 1000 nM"
>>> result("Cn1cc2cc(-n3cc4cc(C5CCNCC5)sc4n3)cc(F)c2n1 [Compound 104]")
"100 to 1000 nM"
